Recorded max response for the following compounds
Test: qHTS assay for small molecule agonists of retinoid X receptor alpha signaling (AID 588544)
Conditions: HEK293T RXRa-UAS-bla, beta-lactamase reporter, 18 h; 530 nm emission
Results filed as inconclusive are left out.
Number only, in %; omit the unit.

See these solved cases before continuing.
Prompt: Assign max response to the following record: Clc1ccc(C(c2ccc(Cl)cc2)C(Cl)Cl)cc1
Response: -1.02

Prompt: Assign max response to the following record: CCOc1nc(C(Cl)(Cl)Cl)ns1
Response: -11.9

Prompt: Assign max response to the following record: Cc1cc(Cl)ccc1OCC(=O)O
Response: -7.53

Prompt: Assign max response to the following record: c1ccc2c(c1)oc1ccccc12
Response: -6.25

Prompt: Assign max response to the following record: COc1cccc(C(=O)NN(C(=O)c2cc(C)cc(C)c2)C(C)(C)C)c1C
Response: -2.17

Let us move to another entry and its max response.
Prompt: Assign max response to the following record: CC(C)[C@H](C(=O)O[C@H](C#N)c1cccc(Oc2ccccc2)c1)c1ccc(Cl)cc1
Response: -3.66

====

Tested on: CP252
Test: qHTS profiling for inhibitors of Plasmodium falciparum proliferation (AID 504749);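 note: 0% = DMSO vehicle and full inhibition = artemisinin control; nearly all actives have a fitted effect of over 60% in size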
Details: P. falciparum in erythrocytes, SYBR Green DNA, 72 h; series mostly up to 28.7 µM
Records with an inconclusive call do not appear. The source made the active and inactive calls. Calls come from the whole dose curve; as a rule, active = well fitted inhibition curve with a large enough effect; inconclusive = small, poorly fitted or top-dose-only effect; inactive = flat fitted curve, though single readings scatter.
Measure name: outcome

Prompt: Assign outcome to the following record: C[C@]12C=CC(=O)C=C1CC[C@@H]1C2CC[C@]2(C)OC(=O)CCC12 (stereo partly drawn)
Response: inactive

Prompt: Assign outcome to the following record: Cc1cc(C)cc(C(=O)OC2CC3CCC(C2)N3C)c1 (stereo not drawn)
Response: inactive

Prompt: Assign outcome to the following record: CN(C)[C@H]1C(=O)C(C(N)=O)=C(O)[C@]2(O)C(=O)C3=C(O)c4c(O)cccc4[C@@](C)(O)[C@H]3C[C@@H]12
Response: inactive

====

Test system: FAB9
Test: qHTS profiling for inhibitors of Plasmodium falciparum proliferation (AID 504749);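 note: 0% = DMSO vehicle and full inhibition = artemisinin control; nearly all actives have a fitted effect of over 60% in size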
Settings: P. falciparum in erythrocytes, SYBR Green DNA, 72 h; series mostly up to 28.7 µM
Inconclusive results are not listed. The source made the active and inactive calls. Calls come from the whole dose curve; as a rule, active = well fitted inhibition curve with a large enough effect; inconclusive = small, poorly fitted or top-dose-only effect; inactive = flat fitted curve, though single readings scatter.
Measure name: outcome

Prompt: Assign outcome to the following record: CCOC(=O)/C=C(C)/C=C/CC(C)CCCC(C)C (stereo not drawn)
Response: inactive

Prompt: Assign outcome to the following record: CC1(C)[C@@H](C=C(Cl)Cl)[C@@H]1C(=O)OCc1c(F)c(F)cc(F)c1F
Response: inactive

Prompt: Assign outcome to the following record: C[C@]12C=CC(=O)C=C1CC[C@@H]1C2CC[C@]2(C)OC(=O)CCC12 (stereo partly drawn)
Response: inactive

====

Target: Glucocorticoid receptor (Homo sapiens) (UniProt P04150)
Sequence (P04150 whole entry, looked up): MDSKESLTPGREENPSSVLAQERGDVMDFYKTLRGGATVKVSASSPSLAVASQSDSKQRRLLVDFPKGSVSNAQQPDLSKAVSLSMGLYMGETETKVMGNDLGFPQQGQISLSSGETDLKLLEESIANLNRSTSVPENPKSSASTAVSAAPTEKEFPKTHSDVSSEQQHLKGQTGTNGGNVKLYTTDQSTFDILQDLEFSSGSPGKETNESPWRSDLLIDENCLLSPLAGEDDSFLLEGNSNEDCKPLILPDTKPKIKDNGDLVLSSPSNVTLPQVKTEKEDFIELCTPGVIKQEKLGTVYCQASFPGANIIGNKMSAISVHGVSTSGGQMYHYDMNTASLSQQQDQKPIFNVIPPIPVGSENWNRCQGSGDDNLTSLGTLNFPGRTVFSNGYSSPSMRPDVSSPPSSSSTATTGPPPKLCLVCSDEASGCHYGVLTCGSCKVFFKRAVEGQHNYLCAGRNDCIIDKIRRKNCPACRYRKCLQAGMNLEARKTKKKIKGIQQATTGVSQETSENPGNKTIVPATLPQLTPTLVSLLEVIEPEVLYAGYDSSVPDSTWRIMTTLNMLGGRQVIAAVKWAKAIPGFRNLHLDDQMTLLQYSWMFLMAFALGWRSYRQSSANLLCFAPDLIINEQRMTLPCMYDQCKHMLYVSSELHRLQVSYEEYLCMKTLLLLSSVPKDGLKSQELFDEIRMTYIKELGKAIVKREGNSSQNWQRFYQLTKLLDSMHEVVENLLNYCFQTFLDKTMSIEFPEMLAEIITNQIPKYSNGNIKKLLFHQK
Experiment: qHTS assay for small molecule antagonists of glucocorticoid receptor signaling (AID 588533);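 note: cells stimulated with 2 nM dexamethasone as agonist; % is set by controls: 0 for no effect and ±100 for the full control effect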
Settings: HeLa MMTV-bla, GRE beta-lactamase ratio, antagonist mode, 18 h; series mostly up to 76.8 µM
Source text: NIH Chemical Genomics Center [NCGC] U.S. Environmental Protection Agency [EPA] National Institutes of Environmental Health Sciences [NIEHS] National Toxicology Program [NTP] […] NCGC Assay Protocol Summary Using a beta-lactamase reporter-gene under control of glucocorticoid response element (GRE), a cell-based assay [CellSensor MMTV-bla HeLa cell line assay developed by Invitrogen] was used to measure GR ligands signaling. […] Detection; Fluorescence; Envision plate reader
Results filed as inconclusive are left out. The source made the active and inactive calls. Calls come from the whole dose curve; as a rule, active = well fitted inhibition curve with a large enough effect in the signal ratio, with a control signal flat (not every such curve was filed as active); inconclusive = small, poorly fitted or top-dose-only effect, or effect the other way, or a change in a side signal; inactive = flat fitted curve, though single readings scatter; the % refers to the signal ratio.
Select the matching outcome among 1 for active, -1 for inactive

For orientation, consider the following solved cases.
Prompt: Dear colleague, could you share the recorded outcome for CCOP(=O)(OCC)SCS(=O)(=O)C(C)(C)C when you have a moment?
Response: -1

Prompt: Dear colleague, could you share the recorded outcome for O=C(O)c1c(Cl)ccc2cc(Cl)cnc12 when you have a moment?
Response: -1

New cases:
Prompt: Dear colleague, could you share the recorded outcome for CC(C)N(C(=O)SCC(Cl)=C(Cl)Cl)C(C)C when you have a moment?
Response: -1

Where do the numbers come from? From PubChem BioAssay (NCATS).
